Experiment: Inhibition of RNA-dependent RNA polymerase in Zika virus infected in human NPC assessed as antiviral activity by DAPI-staining based assay

{"columns": ["molecule-smiles", "unit-name", "EC50"],
 "data": [
  ["CC(C)OC(=O)[C@H](C)N[P@](=O)(OC[C@H]1O[C@@H](n2ccc(=O)[nH]c2=O)[C@](C)(F)[C@@H]1O)Oc1ccccc1", "nM", 120]
]}

====

Target: Genome polyprotein (Zika virus, UniProt A0A143MHK7)
Sequence (A0A143MHK7 whole entry): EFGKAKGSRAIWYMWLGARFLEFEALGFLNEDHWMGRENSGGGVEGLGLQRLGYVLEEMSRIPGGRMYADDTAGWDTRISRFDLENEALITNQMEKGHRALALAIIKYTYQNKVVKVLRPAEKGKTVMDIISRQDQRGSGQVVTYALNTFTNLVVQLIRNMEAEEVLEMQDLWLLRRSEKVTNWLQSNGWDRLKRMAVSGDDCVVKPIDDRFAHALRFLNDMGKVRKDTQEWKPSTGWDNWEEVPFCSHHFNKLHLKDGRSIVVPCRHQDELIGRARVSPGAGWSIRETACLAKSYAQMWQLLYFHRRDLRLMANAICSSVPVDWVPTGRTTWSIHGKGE
Assay: Inhibition of RNA-dependent RNA polymerase in Zika virus MR766 infected in African green monkey Vero cells assessed as antiviral activity by measuring reduction in virus-induced cytopathic effect after 5 days by MTS assay
pEC50: −log10 of the molar value.
experimental-readout: pEC50

{"columns": ["molecule-smiles", "result-number"],
 "data": [
  ["Nc1ncnc2c1ccn2[C@@H]1O[C@H](CO)[C@@H](O)[C@H]1O", 5.89]
]}

====

Assay: Inhibition of RNA-dependent RNA polymerase in Zika virus MR766 infected in HEK293 cells assessed as antiviral activity by measuring NS1 protein expression preincubated for 1 hr followed by viral infection and measured after 24 hrs by TR-FRET assay
pEC50: −log10 of the molar value.

{"columns": ["molecule", "pEC50"],
 "data": [
  ["CC[C@H]1CN2CCc3cc(OC)c(OC)cc3[C@@H]2C[C@@H]1C[C@H]1NCCc2cc(OC)c(OC)cc21 [6',7',10,11-tetramethoxyemetan]", 7.28]
]}

====

Assay: Inhibition of RNA-dependent RNA polymerase in Zika virus MR766 infected in African green monkey Vero cells assessed as antiviral activity after 72 hrs by DAPI staining based assay
pEC50: −log10 of the molar value.

{"columns": ["molecule-smiles", "pEC50"],
 "data": [
  ["NC(=O)c1ncn([C@@H]2O[C@H](CO)[C@@H](O)[C@H]2O)n1", 4.68]
]}

====

Assay: Inhibition of RNA-dependent RNA polymerase in Zika virus infected in African green monkey Vero cells assessed as antiviral activity by DAPI-staining based assay
experimental-readout: EC50

{"columns": ["molecule-smiles", "result"],
 "data": [
  ["CC(C)OC(=O)[C@H](C)N[P@](=O)(OC[C@H]1O[C@@H](n2ccc(=O)[nH]c2=O)[C@](C)(F)[C@@H]1O)Oc1ccccc1", "30.9 µM"]
]}

====

Target: Genome polyprotein (Zika virus, UniProt A0A143MHK7)
Test: Inhibition of RNA-dependent RNA polymerase in Zika virus FSS13025/2010 infected in African green monkey Vero cells assessed as antiviral activity measured 48 hrs post infection by plaque assay
experimental-readout: EC50 (nM)

{"columns": ["molecule-smiles", "result-number"],
 "data": [
  ["C#C[C@@]1(O)[C@H](O)[C@@H](CO)O[C@H]1n1ccc2c(N)ncnc21", 137]
]}

====

Biological target: Genome polyprotein (Zika virus)
Assay: Inhibition of RNA-dependent RNA polymerase in Zika virus MR766 infected in African green monkey Vero cells assessed as antiviral activity by Alexa Fluor 488/DAPI staining based assay

{"columns": ["molecule-smiles", "study-target", "EC50"],
 "data": [
  ["Nc1ncnc2c1ccn2[C@@H]1O[C@H](CO)[C@@H](O)[C@H]1O", "Genome polyprotein (Zika virus)", "1.3 µM"]
]}

====

Target: Genome polyprotein (Zika virus)
Assay: Inhibition of RNA-dependent RNA polymerase in Zika virus FSS13025/2010 infected in African green monkey Vero cells assessed as antiviral activity by measuring viral RNA by RT-qPCR method
pEC50: −log10 of the molar value.

{"columns": ["molecule-smiles", "study-target", "pEC50"],
 "data": [
  ["C#C[C@@]1(O)[C@H](O)[C@@H](CO)O[C@H]1n1ccc2c(N)ncnc21", "Genome polyprotein (Zika virus)", 6.86]
]}
